target: ALK tyrosine kinase receptor (Homo sapiens, UniProt Q9UM73); type: cell-based
Sequence (Q9UM73 19-1620 limits assumed): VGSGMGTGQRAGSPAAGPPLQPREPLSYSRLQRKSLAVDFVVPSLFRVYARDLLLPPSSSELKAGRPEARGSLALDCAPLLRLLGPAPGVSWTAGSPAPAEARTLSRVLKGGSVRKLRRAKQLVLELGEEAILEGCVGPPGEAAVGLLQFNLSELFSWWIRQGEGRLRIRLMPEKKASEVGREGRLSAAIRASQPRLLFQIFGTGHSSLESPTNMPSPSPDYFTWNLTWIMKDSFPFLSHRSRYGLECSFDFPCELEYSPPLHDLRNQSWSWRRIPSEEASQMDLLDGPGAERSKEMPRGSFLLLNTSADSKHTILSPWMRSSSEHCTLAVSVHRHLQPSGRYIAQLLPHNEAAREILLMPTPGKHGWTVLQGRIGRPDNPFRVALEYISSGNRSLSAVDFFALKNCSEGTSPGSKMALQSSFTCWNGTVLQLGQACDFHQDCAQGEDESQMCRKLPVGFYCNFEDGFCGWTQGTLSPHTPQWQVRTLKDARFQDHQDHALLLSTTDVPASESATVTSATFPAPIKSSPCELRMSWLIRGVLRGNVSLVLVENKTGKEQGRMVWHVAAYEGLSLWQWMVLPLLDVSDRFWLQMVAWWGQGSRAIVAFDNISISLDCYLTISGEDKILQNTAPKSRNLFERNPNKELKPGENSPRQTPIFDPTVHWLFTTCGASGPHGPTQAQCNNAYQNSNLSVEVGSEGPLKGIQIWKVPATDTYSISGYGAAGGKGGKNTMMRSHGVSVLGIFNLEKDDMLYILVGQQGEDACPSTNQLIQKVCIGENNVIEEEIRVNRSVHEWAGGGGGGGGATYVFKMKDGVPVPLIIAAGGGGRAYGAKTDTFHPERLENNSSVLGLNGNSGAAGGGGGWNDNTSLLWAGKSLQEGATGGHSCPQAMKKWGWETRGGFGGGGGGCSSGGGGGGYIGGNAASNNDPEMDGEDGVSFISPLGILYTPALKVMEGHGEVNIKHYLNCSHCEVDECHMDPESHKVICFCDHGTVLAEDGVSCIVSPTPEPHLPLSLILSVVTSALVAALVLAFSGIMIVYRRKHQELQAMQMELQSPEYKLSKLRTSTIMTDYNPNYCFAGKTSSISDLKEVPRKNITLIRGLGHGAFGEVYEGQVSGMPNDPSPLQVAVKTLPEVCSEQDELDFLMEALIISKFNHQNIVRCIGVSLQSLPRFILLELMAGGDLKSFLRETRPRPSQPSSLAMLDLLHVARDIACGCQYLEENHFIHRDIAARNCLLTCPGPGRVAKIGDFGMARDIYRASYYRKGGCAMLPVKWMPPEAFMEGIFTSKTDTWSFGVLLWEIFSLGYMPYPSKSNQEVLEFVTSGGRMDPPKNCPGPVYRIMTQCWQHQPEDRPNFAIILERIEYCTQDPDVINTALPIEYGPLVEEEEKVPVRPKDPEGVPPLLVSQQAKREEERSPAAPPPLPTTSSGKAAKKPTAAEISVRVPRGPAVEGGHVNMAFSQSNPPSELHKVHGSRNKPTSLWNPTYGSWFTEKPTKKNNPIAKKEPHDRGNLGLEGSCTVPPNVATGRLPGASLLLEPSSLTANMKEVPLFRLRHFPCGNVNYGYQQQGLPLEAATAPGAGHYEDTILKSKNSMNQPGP
Description: Inhibition of NPM-fused ALK phosphorylation (unknown origin) expressed in human karpas 299 cells after 90 mins by Sandwich-ELISA
propertyName: IC50 (nM)
Give the value, in units of nM, as a plain number.

INPUT: Given C[C@@H](Oc1cc(-c2ccc3c(c2)NC(=O)C32CCN(C)CC2)cnc1N)c1c(Cl)ccc(F)c1Cl , state its recorded IC50.
OUTPUT: 39

* * *

assay: cells; details: Homo sapiens, NCI-H441, 48 h
Description: Antiproliferative activity against human H441 cells after 48 hrs by MTT assay
propertyName: pIC50
Expect pIC50 as a plain number equal to -log10 of the molar concentration.

INPUT: Given C[C@@H](Oc1cc(-c2ccc3c(c2)NC(=O)C32CCN(C)CC2)cnc1N)c1c(Cl)ccc(F)c1Cl , state its recorded pIC50.
OUTPUT: 5.55

* * *

target: Hepatocyte growth factor receptor (Homo sapiens, UniProt P08581); assay: Inhibition of c-Met phosphorylation in human […] cells after 1 hr by western blotting
Sequence (P08581 whole entry): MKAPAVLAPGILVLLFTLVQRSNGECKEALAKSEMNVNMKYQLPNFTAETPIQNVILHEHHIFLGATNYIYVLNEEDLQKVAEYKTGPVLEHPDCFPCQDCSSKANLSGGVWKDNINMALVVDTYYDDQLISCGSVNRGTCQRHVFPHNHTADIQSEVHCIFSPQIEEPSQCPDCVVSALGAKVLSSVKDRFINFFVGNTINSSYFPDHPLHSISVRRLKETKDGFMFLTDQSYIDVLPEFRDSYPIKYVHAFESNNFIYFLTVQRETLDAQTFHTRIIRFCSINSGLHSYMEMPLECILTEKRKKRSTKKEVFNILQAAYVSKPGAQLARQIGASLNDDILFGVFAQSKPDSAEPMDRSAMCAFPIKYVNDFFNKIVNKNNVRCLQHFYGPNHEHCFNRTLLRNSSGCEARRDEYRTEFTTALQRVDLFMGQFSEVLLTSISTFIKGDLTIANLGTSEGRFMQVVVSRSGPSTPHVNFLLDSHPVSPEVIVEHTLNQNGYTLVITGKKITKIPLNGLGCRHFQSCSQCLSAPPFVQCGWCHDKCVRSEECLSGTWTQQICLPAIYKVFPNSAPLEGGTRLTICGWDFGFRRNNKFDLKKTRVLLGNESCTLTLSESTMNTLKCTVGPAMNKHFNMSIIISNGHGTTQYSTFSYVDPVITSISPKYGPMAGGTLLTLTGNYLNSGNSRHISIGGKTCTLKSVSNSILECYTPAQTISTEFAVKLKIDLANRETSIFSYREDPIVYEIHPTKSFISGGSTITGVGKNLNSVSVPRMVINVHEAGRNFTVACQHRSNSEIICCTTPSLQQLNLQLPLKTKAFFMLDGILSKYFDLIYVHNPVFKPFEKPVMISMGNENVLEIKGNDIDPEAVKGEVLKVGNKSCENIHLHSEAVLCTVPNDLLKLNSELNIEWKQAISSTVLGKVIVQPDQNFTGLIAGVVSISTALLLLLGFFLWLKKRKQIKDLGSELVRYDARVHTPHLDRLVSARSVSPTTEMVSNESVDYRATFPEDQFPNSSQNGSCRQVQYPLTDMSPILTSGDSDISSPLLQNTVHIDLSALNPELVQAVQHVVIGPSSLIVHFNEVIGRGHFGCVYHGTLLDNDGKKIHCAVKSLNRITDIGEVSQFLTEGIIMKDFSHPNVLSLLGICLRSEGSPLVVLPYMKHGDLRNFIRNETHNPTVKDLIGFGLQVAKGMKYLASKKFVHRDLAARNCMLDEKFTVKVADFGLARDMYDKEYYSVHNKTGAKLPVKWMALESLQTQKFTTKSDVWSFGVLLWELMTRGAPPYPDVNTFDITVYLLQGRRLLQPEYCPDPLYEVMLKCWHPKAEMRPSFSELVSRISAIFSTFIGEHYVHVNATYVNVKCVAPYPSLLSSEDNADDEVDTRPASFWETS
propertyName: IC50

INPUT: Can you look up IC50 on Hepatocyte growth factor receptor (Homo sapiens, UniProt P08581) for CN1CCC2(CC1)C(=O)Nc1ccc(-c3cnc(N)c(OCc4c(Cl)ccc(F)c4Cl)c3)cc12 ?
OUTPUT: > 10 µM

* * *

experiment: cells; details: Homo sapiens, U-87 MG, 48 h
Description: Antiproliferative activity against human U87MG cells after 48 hrs by MTT assay
pIC50: −log10 of the molar value.
propertyName: pIC50

INPUT: Given C[C@@H](Oc1cc(-c2ccc3c(c2)NC(=O)C32CCN(C)CC2)cnc1N)c1c(Cl)ccc(F)c1Cl , state its recorded pIC50.
OUTPUT: < 5.00

* * *

assay: Cmax in BALB/c mouse at 5 mg/kg, iv; assay type: ADME, organism-based; design: dose 5 mg/kg, route intravenous; conditions: in vivo
propertyName: Cmax (nM)
Give the value, in units of nM, as a plain number.

INPUT: Given C[C@@H](Oc1cc(-c2ccc3c(c2)NC(=O)C32CCN(C)CC2)cnc1N)c1c(Cl)ccc(F)c1Cl , state its recorded Cmax.
OUTPUT: 1360

These data points were gathered from ChEMBL document CHEMBL3091431.
